- System Tested: SF3b complex (Homo sapiens, UniProt O75533+Q7RTV0)
- Experiment Description: Payload binding to the SF3b complex (SF3B1 binding)
- Measurement Setup: SF3B1 (WT), HELA.2, read-out: SPA-ATS GMean IC50 (nM) SF3B1 (WT) HELA.2
Recorded Metric: IC50
Show the value, then the unit it is measured in.

Query string: What value of IC50 has been reported for the following compound? CO[C@H]([C@@H](C)[C@H]1O[C@]1(C)C[C@H](C)/C=C/C=C(\C)[C@H]1O[C@@H](CC(=O)O)C[C@@H](OC(=O)N2CCNCC2)[C@@H]1C)[C@@H](C)O
Result string: 11.7 nM

Query string: Now this one: CO[C@H]([C@@H](C)[C@H]1O[C@]1(C)C[C@H](C)/C=C/C=C(\C)[C@H]1O[C@@H](CC(=O)N[C@@H](CCCOC(=O)N2CCNCC2)C(=O)O)CC[C@@H]1C)[C@@H](C)O
Result string: 14.5 nM

Query string: Now this one: CO[C@H]([C@@H](C)[C@H]1O[C@]1(C)C[C@H](C)/C=C/C=C(\C)[C@H]1O[C@@H](CNC(=O)CCCCCOC(=O)N2CCNCC2)CC[C@@H]1C)[C@@H](C)O
Result string: 12.9 nM

###

- System: NCIH1650.1
- Experiment Description: Herboxidiene splicing modulator cell potency, CTGlo-ATS, NCIH1650.1, 72 h
- Assay type: cell-based
- Measurement Setup: payload, NCIH1650.1
Recorded Metric: CTGIo-ATS GMean LD50 (nM) 72 h NCIH1650.1

Query string: What value of CTGIo-ATS GMean LD50 (nM) 72 h NCIH1650.1 has been reported for the following compound? CO[C@H]([C@@H](C)[C@H]1O[C@]1(C)C[C@H](C)/C=C/C=C(\C)[C@H]1O[C@@H](CNC(=O)CCCCCOC(=O)N2CCNCC2)CC[C@@H]1C)[C@@H](C)O [Compound H5]
Result string: >10000 nM

Query string: Now this one: CO[C@H]([C@@H](C)[C@H]1O[C@]1(C)C[C@H](C)/C=C/C=C(\C)[C@H]1O[C@@H](CNC(=O)CCCCCOC(=O)N2CCCNCC2)CC[C@@H]1C)[C@@H](C)O [Compound H6]
Result string: 1.336 nM

Query string: Now this one: CNC1CCN(C(=O)OCCOCCC(=O)NC[C@H]2CC[C@H](C)[C@@H](/C(C)=C/C=C/[C@@H](C)C[C@@]3(C)O[C@@H]3[C@H](C)[C@@H](OC)[C@@H](C)O)O2)C1 (stereo partly drawn) [Compound H10]
Result string: >10000 nM

Query string: Now this one: CO[C@H]([C@@H](C)[C@H]1O[C@]1(C)C[C@H](C)/C=C/C=C(\C)[C@H]1O[C@@H](CC(=O)N[C@@H](CCCOC(=O)N2CCNCC2)C(=O)O)CC[C@@H]1C)[C@@H](C)O [Compound H4]
Result string: 2575.18 nM

Query string: Now this one: CO[C@H]([C@@H](C)[C@H]1O[C@]1(C)C[C@H](C)/C=C/C=C(\C)[C@H]1O[C@@H](CNC(=O)CCOCCOC(=O)N2CCCNCC2)CC[C@@H]1C)[C@@H](C)O [Compound H9]
Result string: 2.681 nM

Query string: Now this one: CO[C@H]([C@@H](C)[C@H]1O[C@]1(C)C[C@H](C)/C=C/C=C(\C)[C@H]1O[C@@H](CNC(=O)CCOCCOC(=O)N2CCNCC2)CC[C@@H]1C)[C@@H](C)O [Compound H8]
Result string: >10000 nM

Query string: Now this one: CNC1CCN(C(=O)O[C@@H]2C[C@H](CC(=O)O)O[C@H](/C(C)=C/C=C/[C@@H](C)C[C@@]3(C)O[C@@H]3[C@H](C)[C@@H](OC)[C@@H](C)O)[C@H]2C)C1 (stereo partly drawn) [Compound H3]
Result string: >10000 nM

Query string: Now this one: CO[C@H]([C@@H](C)[C@H]1O[C@]1(C)C[C@H](C)/C=C/C=C(\C)[C@H]1O[C@@H](CC(=O)O)C[C@@H](OC(=O)N2CCNCC2)[C@@H]1C)[C@@H](C)O [Compound H1]
Result string: >10000 nM

Query string: Now this one: CNC1CCN(C(=O)OCCCCCC(=O)NC[C@H]2CC[C@H](C)[C@@H](/C(C)=C/C=C/[C@@H](C)C[C@@]3(C)O[C@@H]3[C@H](C)[C@@H](OC)[C@@H](C)O)O2)C1 (stereo partly drawn) [Compound H7]
Result string: >10000 nM

Origin of the recorded values: patent US12514928B2
